Every entry's value here was drawn from PubChem BioAssay (NCI).

assay: NCI Yeast Anticancer Drug Screen. Data for the cln2 rad14 strain (AID 165); conditions: S. cerevisiae cln2 rad14 strain, at 50.0 µM
About 79,000 compounds went through this panel and 15% of them were active in at least one assay; those are over-represented in the sample as a whole. Activity calls are given as the source filed them. Cut-off read from the data, not from the text of the source: active = growth inhibition above about 70%; inactive = the rest.
A correct response names exactly one class from active, inactive

The following compounds have reported results that may help.
N#C/C(=C\NC(=S)Nc1ccc(S(N)(=O)=O)cc1)C(=O)c1ccc2ccccc2c1
inactive
COc1ccc(C(OCC2OC(n3cnc4c(=O)n(Cc5ccccc5[N+](=O)[O-])nnc43)C(O)C2O)(c2ccccc2)c2ccc(OC)cc2)cc1 (stereo not given)
active
O=C(C(Cl)=C(N1CCCCC1)N1CCCCC1)C(Cl)Cl
inactive
O=C1C(CCSc2ccccc2)C(=O)N(c2ccccc2)C1c1ccccc1 (stereo not given)
active

Shift focus to the following entry.
Tell me the recorded outcome of this test for Clc1ccc(/C(=C\c2ccccc2)Cn2ccnc2)cc1 . active
